Reference source for all entries: patent US8501936B2

Parameter pIC50: see the listing below.
- Test target: human JAK2 (Homo sapiens (Human), UniProt O60674)
- Sequence (O60674 815-1132): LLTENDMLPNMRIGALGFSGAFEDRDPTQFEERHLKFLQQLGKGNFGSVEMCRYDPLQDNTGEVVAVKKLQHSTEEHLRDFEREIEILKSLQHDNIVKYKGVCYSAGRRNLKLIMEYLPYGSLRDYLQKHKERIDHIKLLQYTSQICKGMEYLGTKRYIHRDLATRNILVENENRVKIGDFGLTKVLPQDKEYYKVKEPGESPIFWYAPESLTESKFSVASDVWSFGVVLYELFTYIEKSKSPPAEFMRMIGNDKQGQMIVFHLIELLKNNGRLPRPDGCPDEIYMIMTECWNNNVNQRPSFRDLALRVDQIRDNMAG
- Conditions used: read-out: JAK2 IC50
Please report pIC50 as the negative decimal logarithm of the molar concentration, giving only the number.

Answered cases to consult:
C[C@H](O)CN1CCN(c2cccc(Nc3nc4c(-c5ccc(S(C)(=O)=O)cc5)cccn4n3)c2)CC1 [Example 142] = 9.12
COCc1ccccc1-c1cccc2nc(Nc3ccc4c(c3)CCN(CCS(C)(=O)=O)CC4)nn12 [Example 230] = 7.56
COc1ccc(Nc2nc3c(-c4cnn(S(C)(=O)=O)c4)cccn3n2)cc1 [Example 42] = 8.52

# context switch: different compound, same pIC50
I'd like to know its pIC50. The compound in question is COc1ccc(C(F)(F)F)cc1-c1cccn2nc(Nc3ccc4c(c3)CCN(CC(=O)N(C)C)C4)nc12 [Example 338]
7.38
